Tested on: Trypanosoma cruzi
Experiment: Antiprotozoal activity against intracellular amastigote stage of Trypanosoma cruzi Tulahuen C4 by colorimetric assay
Format: functional, organism-based
Each entry below carries its recorded pIC50.
Units for pIC50: none; it is -log10 of a concentration expressed in mol/L.

structure-smiles: Nc1ccc2[nH]c3ccc([N+](=O)[O-])cc3c(=O)c2c1
test-readout: pIC50
assay-value: 3.54

Query string: Indicate its recorded pIC50; the compound in question is Nc1ccc(Nc2ccc([N+](=O)[O-])cc2C(=O)O)cc1
Result string: 3.53

Query string: Indicate its recorded pIC50; the compound in question is Nc1ccc2c(=O)c3cc(N)ccc3[nH]c2c1
Result string: 3.57

Query string: Indicate its recorded pIC50; the compound in question is O=C(O)C(F)(F)F.O=C(O)C(F)(F)F.O=C1c2ccc(NC3=NCCN3)cc2C(=O)c2ccc(NC3=NCCN3)cc21
Result string: 3.98

Query string: Indicate its recorded pIC50; the compound in question is Nc1ccc2[nH]c3ccc(N)cc3c(=O)c2c1
Result string: 3.83

Query string: Indicate its recorded pIC50; the compound in question is CC(C)(C)OC(=O)N1CCN(C(=O)OC(C)(C)C)C1=Nc1ccc2[nH]c3ccc(N=C4N(C(=O)OC(C)(C)C)CCN4C(=O)OC(C)(C)C)cc3c(=O)c2c1
Result string: 4.30

Query string: Indicate its recorded pIC50; the compound in question is Nc1ccc2c(=O)c3cc([N+](=O)[O-])ccc3[nH]c2c1
Result string: 3.55

Query string: Indicate its recorded pIC50; the compound in question is Nc1cccc(Nc2ccc([N+](=O)[O-])cc2C(=O)O)c1
Result string: 3.57
